These measurements were taken from PubChem BioAssay (NCI).

Test system: ACHN renal
EXPERIMENT_SUMMARY: NCI-60 one-dose screen, 48 h (100 = growth as untreated, 0 = no growth, -100 = all killed)
STUDY_CONDITIONS: 10 µM unless noted
The panel holds about 83,000 compounds, 20% with a hit somewhere; the sample as a whole holds those more often.
OBSERVABLE: growth (%)
Your answer is read as %, so omit the unit and give the number.

Consider CC(=O)O[C@@H]1C2CCC3C(CC[C@@]4(C)C3CC[C@@H]4C(C)N(C)C)[C@@]2(C)CC[C@@H]1NC(=O)C=C(C)C (some centres not stated) . Its measured growth is 25.4

Consider CC(C)=CCC[C@](C)(O)[C@H]1CC[C@]2(C)[C@@H]1CC[C@@H]1[C@@]3(C)C/C(=C/c4ccccc4)C(=O)C(C)(C)[C@@H]3CC[C@]12C . Its measured growth is 96.3

Consider Cc1c(C(=O)NCCC(=O)NO)sc2ncnc(Nc3ccc(NC(=O)Nc4cccc(C(F)(F)F)c4)cc3)c12 . Its measured growth is 102

Consider N#C/C(=C\c1ccc(Cl)cc1)n1nnc2cc(F)c(F)cc21 . Its measured growth is 9.15
